What IC50 was measured for each of the following?
- Tested on: MRC-5
- method notes: Cytotoxicity analysis (WST-1)
- Type: cell-based
- setup conditions: Homo sapiens, MRC5, MRC-5 normal cell line, 48 h
The answer is to be given in µM; state only the numeric part.

Qu. Return IC50 for the following compound: Cc1ccc(S(=O)(=O)OC2CCC34CC35CCC3(C)C(C6(C)CCC(C(C)(C)O)O6)C(O)CC3(C)C5CC(=O)C4C2(C)C)cc1 (centres unmarked) [CG-05]
Ans. 2.58

Qu. Answer with reported IC50 of CC(=O)Nc1ccc(S(=O)(=O)OC2CCC3(C)C4=CCC5(C)C(C6(C)CCC(C(C)(C)O)O6)C(O)CC5(C)C4C=CC3C2(C)C)cc1 (centres unmarked) [AG-06]
Ans. 19.1

Qu. Output measured IC50 for this item: CC(C)(O)C1CCC(C)(C2C(O)CC3(C)C4C=CC5C(C)(C)C(O)CCC56CC46CCC23C)O1 (centres unmarked) [CG-02]
Ans. 33.4

Qu. Quickly give me recorded IC50 for CC(C)(O)C1CCC(C)(C2C(O)CC3(C)C4C=CC5C(C)(CCC(OS(C)(=O)=O)C5(C)C)C4=CCC23C)O1 (centres unmarked) [AG-04]
Ans. 29.6

Qu. Output IC50 of CC(C)(O)C1CCC(C)(C2C(O)CC3(C)C4C=CC5C(C)(CCC(O)C5(C)C)C4=CCC23C)O1 (centres unmarked) [AG-03]
Ans. 24.4

Qu. Given Cc1ccc(S(=O)(=O)OC2CCC3(C)C4=CCC5(C)C(C6(C)CCC(C(C)(C)O)O6)C(O)CC5(C)C4CC(=O)C3C2(C)C)cc1 (centres unmarked) [AG-05] , respond with its IC50.
Ans. 1.55

Qu. Please indicate IC50 recorded for CN(C)c1cccc2c(S(=O)(=O)OC3CCC4(C)C5=CCC6(C)C(C7(C)CCC(C(C)(C)O)O7)C(O)CC6(C)C5C=CC4C3(C)C)cccc12 (centres unmarked) [AG-07]
Ans. 7.4

###

- Test system: HeLa, HCC1937, MCF7, A549 and MRC-5
- method notes: cells
- Type: cell-based, Human
endpoint: cytotoxic activity (structure-activity statement)

Qu. Supply cytotoxic activity (structure-activity statement) value. Item: CC(C)(O)C1CCC(C)(C2C(O)CC3(C)C4C=CC5C(C)(CCC(OS(C)(=O)=O)C5(C)C)C4=CCC23C)O1 (stereo not drawn) [AG-04]
Ans. the activity was lost

Qu. Tell me measured cytotoxic activity (structure-activity statement) for Cc1ccc(S(=O)(=O)OC2CCC3(C)C4=CCC5(C)C(C6(C)CCC(C(C)(C)O)O6)C(O)CC5(C)C4CC(=O)C3C2(C)C)cc1 (stereo not drawn) [AG-05] please.
Ans. higher activity

Qu. Consider the molecule CC(C)(O)C1CCC(C)(C2C(O)CC3(C)C4C=CC5C(C)(C)C(OS(C)(=O)=O)CCC56CC46CCC23C)O1 (stereo not drawn) [CG-04] . State its measured cytotoxic activity (structure-activity statement).
Ans. the activity was lost

Qu. Using known records, supply cytotoxic activity (structure-activity statement) for Cc1ccc(S(=O)(=O)OC2CCC34CC35CCC3(C)C(C6(C)CCC(C(C)(C)O)O6)C(O)CC3(C)C5CC(=O)C4C2(C)C)cc1 (stereo not drawn) [CG-05]
Ans. higher activity
